- ASSAY: in vitro
- CONDITION NOTES: human, hela cells, % viability
REPORTED PROPERTY: viability at 28.5 h, 10 µM (%)
Kindly provide the numeric value in % only, without the unit symbol.

// Cc1ccnc2c1C(=O)C1(CC2)CCN(C(=O)Nc2ccc(F)cc2F)CC1 [CBK059553T] : viability at 28.5 h, 10 µM value = 91.3

// COc1ccc(C(=O)N[C@@H]2CN(Cc3ccc(CO)o3)CCC[C@H]2O)cc1 : viability at 28.5 h, 10 µM value = 89.8

// COC(=O)Nc1ccc(S(=O)(=O)N2CCCC(C(=O)Nc3ccc4c(c3)OCO4)C2)cc1 (centres unmarked) : viability at 28.5 h, 10 µM value = 89.8

// COc1ccc(-c2nnc(SCC(=O)O)n2-c2cccc(C(F)(F)F)c2)cc1OC : viability at 28.5 h, 10 µM value = 88.7

// Cc1cc(NC(=O)C2COc3ccccc3O2)c2ccccc2n1 (centres unmarked) : viability at 28.5 h, 10 µM value = 91.6
